- measuredOn: Clec10a-Fc (Mus musculus, UniProt P49300)
- Construct: cloning the extracellular region of mouse Clec10a into a pME18S expression vector; made in house; host or cells: HEK293T cells
- Sequence (P49300 57-304 limits assumed): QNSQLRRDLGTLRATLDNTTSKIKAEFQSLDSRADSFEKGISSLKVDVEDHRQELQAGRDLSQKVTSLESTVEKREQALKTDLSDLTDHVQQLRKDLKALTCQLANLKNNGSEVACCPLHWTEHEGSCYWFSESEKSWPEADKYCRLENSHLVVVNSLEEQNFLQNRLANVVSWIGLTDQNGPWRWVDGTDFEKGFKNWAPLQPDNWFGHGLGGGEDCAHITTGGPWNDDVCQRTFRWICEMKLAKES
- measurementNotes: Sugar conjugate (glycan) microarray analysis of Clec10a-Fc (Table 7)
- Format: binding
- runParameters: glycan microarray probed with Clec10a-Fc with EDTA
We begin with a simple list: items and their reported Signal value, Clec10a-Fc with EDTA.

- compound: "CC(=O)N[C@@H]1[C@@H](O)[C@H](O)[C@@H](COS(=O)(=O)O)O[C@H]1O [[6S]BGlcNAc]"
  Signal value, Clec10a-Fc with EDTA: 0
- compound: "CC(=O)N[C@@H]1[C@@H](O[C@@H]2O[C@@H](C)[C@@H](O)[C@@H](O)[C@@H]2O)[C@H](O[C@@H]2O[C@H](CO)[C@H](O)[C@H](O[C@]3(C(=O)O)C[C@H](O)[C@@H](NC(C)=O)[C@H]([C@H](O)[C@H](O)CO)O3)[C@H]2O)[C@@H](CO)O[C@H]1O [sLex]"
  Signal value, Clec10a-Fc with EDTA: 0
- compound: "CC(=O)N[C@@H]1[C@@H](O)[C@H](O[C@@H]2O[C@H](CO)[C@H](O)[C@H](O[C@]3(C(=O)O)C[C@H](O)[C@@H](NC(C)=O)[C@H]([C@H](O)[C@H](O)CO)O3)[C@H]2O)[C@@H](CO)O[C@H]1O [3′SLN]"
  Signal value, Clec10a-Fc with EDTA: 0
- compound: "CC(=O)N[C@@H]1[C@@H](O[C@@H]2O[C@H](CO)[C@H](O)[C@H](OS(=O)(=O)O)[C@H]2O)[C@H](O[C@@H]2O[C@@H](C)[C@@H](O)[C@@H](O)[C@@H]2O)[C@@H](CO)O[C@H]1O [[3S]Lea]"
  Signal value, Clec10a-Fc with EDTA: 0
- compound: "CC(=O)N[C@@H]1[C@@H](O[C@@H]2O[C@H](CO)[C@H](O)[C@H](O)[C@H]2O)[C@H](O)[C@@H](CO)O[C@H]1O [Lec]"
  Signal value, Clec10a-Fc with EDTA: 0

----------
- measuredOn: Clec10a-Fc (Mus musculus)
- Construct: cloning the extracellular region of mouse Clec10a into a pME18S expression vector; made in house; host or cells: HEK293T cells
- measurementNotes: Sugar conjugate (glycan) microarray analysis of Clec10a-Fc (Table 7)
- Assay type: binding
- runParameters: glycan microarray probed with Clec10a-Fc with EDTA
assayMetric: Signal value, Clec10a-Fc with EDTA

- compound: "O=S(=O)(O)O[C@@H]1[C@@H](O)[C@H](O)O[C@H](CO)[C@@H]1O [[3S] βGal]"
  measuredOn: "Clec10a-Fc (Mus musculus)"
  assayMetric: "Signal value, Clec10a-Fc with EDTA"
  numericValue: 0
- compound: "CC(=O)N[C@@H]1[C@@H](O[C@@H]2O[C@H](CO)[C@H](O)[C@H](O)[C@H]2O)[C@@H](O)[C@@H](CO[C@]2(C(=O)O)C[C@H](O)[C@@H](NC(C)=O)[C@H]([C@H](O)[C@H](O)CO)O2)O[C@@H]1O"
  measuredOn: "Clec10a-Fc (Mus musculus)"
  assayMetric: "Signal value, Clec10a-Fc with EDTA"
  numericValue: 0
- compound: "CC(=O)N[C@@H]1[C@@H](O)[C@H](O[C@@H]2O[C@H](CO)[C@H](O)[C@H](O)[C@H]2O)[C@@H](COS(=O)(=O)O)O[C@H]1O [[6S]LN]"
  measuredOn: "Clec10a-Fc (Mus musculus)"
  assayMetric: "Signal value, Clec10a-Fc with EDTA"
  numericValue: 0
- compound: "CC(=O)N[C@@H]1[C@@H](O)[C@H](O[C@@H]2O[C@H](COS(=O)(=O)O)[C@H](O)[C@H](O)[C@H]2O)[C@@H](CO)O[C@H]1O [[6′S]LN]"
  measuredOn: "Clec10a-Fc (Mus musculus)"
  assayMetric: "Signal value, Clec10a-Fc with EDTA"
  numericValue: 0
- compound: "CC(=O)N[C@@H]1[C@@H](O[C@@H]2O[C@H](CO)[C@H](O)[C@H](O)[C@H]2O[C@@H]2O[C@@H](C)[C@@H](O)[C@@H](O)[C@@H]2O)[C@H](O[C@@H]2O[C@@H](C)[C@@H](O)[C@@H](O)[C@@H]2O)[C@@H](CO)O[C@H]1O"
  measuredOn: "Clec10a-Fc (Mus musculus)"
  assayMetric: "Signal value, Clec10a-Fc with EDTA"
  numericValue: 0
